// provenance: paper PMC3901045

target.desc: cyt P450 1A1 (Homo sapiens, UniProt P04798)
Sequence (P04798 1-512): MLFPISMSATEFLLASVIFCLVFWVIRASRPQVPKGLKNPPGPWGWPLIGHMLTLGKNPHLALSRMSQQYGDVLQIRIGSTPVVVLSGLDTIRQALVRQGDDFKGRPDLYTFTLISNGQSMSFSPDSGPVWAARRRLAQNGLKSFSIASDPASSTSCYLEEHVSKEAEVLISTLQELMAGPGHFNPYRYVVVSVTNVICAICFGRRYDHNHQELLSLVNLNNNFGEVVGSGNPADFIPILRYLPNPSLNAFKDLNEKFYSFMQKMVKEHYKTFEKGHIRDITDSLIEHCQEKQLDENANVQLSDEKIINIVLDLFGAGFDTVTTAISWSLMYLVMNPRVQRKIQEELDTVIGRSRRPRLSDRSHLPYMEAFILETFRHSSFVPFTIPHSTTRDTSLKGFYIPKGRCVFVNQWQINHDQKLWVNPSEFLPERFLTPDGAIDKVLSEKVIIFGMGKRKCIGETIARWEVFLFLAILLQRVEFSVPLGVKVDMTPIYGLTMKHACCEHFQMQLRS
measure.name: IC50 (nM)
// units = nM; emit number, no label

Case COc1ccc(/C=C/c2cc(O)cc(O)c2)cc1O [rhapontigenin] , cyt P450 1A1 (Homo sapiens, UniProt P04798), IC50 recorded as 32
